Recorded EC50, one value per entry.
Target: T1, African green monkey PVR (CD 155) on Vero cells (African green monkey)
T1 construct: whole, on cells
T1 sequence (P32506 21-417): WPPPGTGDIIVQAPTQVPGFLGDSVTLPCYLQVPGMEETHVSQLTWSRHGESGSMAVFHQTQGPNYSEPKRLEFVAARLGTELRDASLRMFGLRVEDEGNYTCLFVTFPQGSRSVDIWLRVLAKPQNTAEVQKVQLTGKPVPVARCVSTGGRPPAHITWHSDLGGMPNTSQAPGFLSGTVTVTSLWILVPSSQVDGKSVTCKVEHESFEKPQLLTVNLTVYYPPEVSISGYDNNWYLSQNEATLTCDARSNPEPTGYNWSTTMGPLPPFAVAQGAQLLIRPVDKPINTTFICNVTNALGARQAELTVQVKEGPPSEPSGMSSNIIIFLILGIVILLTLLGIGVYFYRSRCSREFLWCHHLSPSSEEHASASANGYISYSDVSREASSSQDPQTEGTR
Assay: cell binding on Vero cells
measuredEndpoint: EC50

VH3 N54Q D56E / VK3 N92E (antibody, V domains shown, Humanized variant of Ab825; also called antibody (iii)) VH: EVQLVQSGSELKKPGASVKISCKTSGYTFTEYTMHWVRQPHGKGLEWIGGIHPNQGETSYNQRFKGRVTLTVDKSTSTAYMELSSLRSEDTAVYYCARWTGDFDYWGQGTLVTVSS VL: DIQMTQSPSAMSASVGDRVTITCKASQNVGTNVAWYQQKPGQPPKALIYSASYRYSGVPDRFSGSGSGTDFTLTISSLQAEDLAEYFCQQYESYPYTFGQGTKLEIK: 0.273 µg/mL
Ab825 (VH0/VK0), human IgG1 chimeric antibody (antibody, V domains shown, Murine variable regions in a human IgG1 chimeric antibody, derived from D171) VH: EVQLQQSGPELVKPGASVKISCKTSGYTFTEYTMHWVKQSHGKSLEWIGGIHPNNGDTSYNQRFKGKATLTVDKSSSTAYMELRSLTSEDSAVYYCARWTGDFDYWGQGTTLTVST VL: DIVMTQSPKFMSTSVGDRVSVTCKASQNVGTNVAWYQQKPGQSPKALIYSASYRYSGVPDRFTGSGSGTDFTLTISNVQSEDLAEYFCQQYNSYPYTFGGGTKLEIK: 0.086 µg/mL
VH3 N54S D56G / VK3 N92Q (antibody, V domains shown, Humanized variant of Ab825; also called antibody (iv); Sample 3) VH: EVQLVQSGSELKKPGASVKISCKTSGYTFTEYTMHWVRQPHGKGLEWIGGIHPNSGGTSYNQRFKGRVTLTVDKSTSTAYMELSSLRSEDTAVYYCARWTGDFDYWGQGTLVTVSS VL: DIQMTQSPSAMSASVGDRVTITCKASQNVGTNVAWYQQKPGQPPKALIYSASYRYSGVPDRFSGSGSGTDFTLTISSLQAEDLAEYFCQQYQSYPYTFGQGTKLEIK: 0.0561 µg/mL
